Origin of measurements: ChEMBL document CHEMBL1143505

organism: Cavia porcellus; assay: Percentage protection of guinea pigs from histamine induced bronchospasm by compound; set-up: concentration or dose not given beside the values
MEASUREMENT NAME: Protection (%)
Number in %, nothing else.

Prompt: Return reported Protection. Input compound: CN(C)CCC(c1ccc(Cl)cc1)c1ccccn1.O=C(O)/C=C\C(=O)O (configuration not stated) [CHLORPHENIRAMINE MALEATE]
Completion: 71

Prompt: Give Protection for O=C(O)COCCN1CCN(C(c2ccccc2)c2ccc(Cl)cc2)CC1 (configuration not stated)
Completion: 78.9

Prompt: Report Protection for `CCCc1nnc2n(-c3ccccc3)c(=O)c3ccccc3n12`
Completion: 69.2

Prompt: Supply measured Protection of `O=c1c2ccccc2n2cnnc2n1-c1ccccc1` in your reply.
Completion: 69.9

Prompt: Quickly give me recorded Protection for `Cc1nnc2n(-c3ccccc3)c(=O)c3ccccc3n12`
Completion: 70.7

Prompt: Consider the compound `O=c1c2ccccc2n2c(CCl)nnc2n1-c1ccccc1` and give its recorded Protection.
Completion: 68.7

Prompt: Give Protection for the following compound: `CCc1nnc2n(-c3ccccc3)c(=O)c3ccccc3n12`
Completion: 70
